Reported values of slope for individual entries
target_under_test: AKR1C1 (Homo sapiens)
procedure_summary: Enzyme activity (NADPH) assay with s-tetralol, recombinant GST-AKR1C1
Format: biochemical
Parameters: made in house; host or cells: Escherichia coli JM109
conditions_used: 2 μM compound; Supplementary Table 1; CON 0.0122

compound	target_under_test	slope
O=c1c(O)c(-c2ccccc2)oc2cc(O)cc(O)c12 [3,5,7-Trihydroxyflavone]	AKR1C1 (Homo sapiens)	0.00928
COc1cc2c(cc1CC=C(C)C)C(=O)C[C@@H](c1ccc(O)cc1)O2	AKR1C1 (Homo sapiens)	0.009203
CC(C)=CCC[C@](C)(O[C@@H]1O[C@H](CO)[C@@H](O)[C@H](O)[C@H]1O)[C@H]1CC[C@]2(C)[C@@H]1[C@H](O)C[C@@H]1[C@@]3(C)CC[C@H](O)C(C)(C)[C@@H]3CC[C@]12C [Ginsenoside CK]	AKR1C1 (Homo sapiens)	0.0123
C=C1C(=O)O[C@@H]2/C=C(\C)CC/C=C(\C)CC[C@@H]12 [Costundide]	AKR1C1 (Homo sapiens)	0.007263
O=c1c(-c2ccc(O)cc2)coc2cc(O[C@@H]3O[C@H](CO)[C@@H](O)[C@H](O)[C@H]3O)ccc12	AKR1C1 (Homo sapiens)	0.013
Oc1cc(O)c2c(c1)O[C@H](c1cc(O)c(O)c(O)c1)[C@H](O)C2 [(−)-Epigallocatechin]	AKR1C1 (Homo sapiens)	0.0131
Oc1cc(O)c2c(c1)O[C@H](c1cc(O)c(O)c(O)c1)[C@H](O)C2 [Epigallocatechin]	AKR1C1 (Homo sapiens)	0.0131

----------
target_under_test: AKR1C1 (Homo sapiens, UniProt Q04828)
Sequence (Q04828 whole entry, the tested form may be a part): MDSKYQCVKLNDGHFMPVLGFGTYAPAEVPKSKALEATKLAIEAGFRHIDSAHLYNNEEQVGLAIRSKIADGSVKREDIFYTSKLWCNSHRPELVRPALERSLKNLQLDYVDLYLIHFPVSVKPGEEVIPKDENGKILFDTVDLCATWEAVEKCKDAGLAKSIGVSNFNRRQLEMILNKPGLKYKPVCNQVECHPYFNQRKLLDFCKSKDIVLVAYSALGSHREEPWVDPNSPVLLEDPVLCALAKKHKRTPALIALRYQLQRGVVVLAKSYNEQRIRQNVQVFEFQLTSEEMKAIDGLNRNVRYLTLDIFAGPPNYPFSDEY
procedure_summary: Enzyme activity (NADPH) assay with s-tetralol, recombinant GST-AKR1C1
Format: biochemical
Design: made in house; host or cells: Escherichia coli JM109
conditions_used: 2 μM compound; Supplementary Table 1; CON 192.295568
readout: enzyme activity (nmol/min/mg)

>>> print(df.to_string())
                                   compound         unit  numeric_value
0  CC(C)=CCc1cc2c(cc1O)oc(=O)c1c3ccc(O)cc3oc21 [Psoralidin]  nmol/min/mg       187.9723
1  COc1c2c(cc3oc(CO[C@@H]4O[C@H](CO)[C@@H](O)[C@H](O)[C@H]4O)cc(=O)c13)O[C@H](C(C)(C)O)C2 [Prim-O-glucosylcimifugin]  nmol/min/mg       195.2678
2  O=C([O-])C(O)Cc1ccc(O)c(O)c1.[Na+] (stereo not shown) [Sodium Danshensu]  nmol/min/mg       165.3652
3  COc1cc2c(c(OC)c1OC)-c1c(cc(OC)c(OC)c1OC)C[C@](C)(O)[C@@H](C)C2 [Schisandrol A]  nmol/min/mg       215.8934
4  COc1ccc(-c2cc(=O)c3c(OC)c(OC)c(OC)c(OC)c3o2)cc1OC [Nobiletin]  nmol/min/mg       200.1315
5  Oc1cc(O)c2c(c1)O[C@H](c1cc(O)c(O)c(O)c1)[C@H](O)C2 [Epigallocatechin]  nmol/min/mg       206.6164
6  COc1cc(C[C@H]2C(=O)OC[C@@H]2Cc2ccc(OC)c(OC)c2)ccc1O [Arctigenin]  nmol/min/mg       203.0137

----------
target_under_test: AKR1C1 (Homo sapiens)
procedure_summary: Enzyme activity (NADPH) assay with s-tetralol, recombinant GST-AKR1C1
Type: biochemical
Design: made in house; host or cells: Escherichia coli JM109
conditions_used: 2 μM compound; Supplementary Table 1; CON 0.0122
If the reported slope equals or exceeds 0.01, assign true (1). If not, assign false (0).

compound	class_label
C[C@@H]1O[C@@H](O[C@@H]2[C@@H](O)[C@H](OCCc3ccc(O)c(O)c3)O[C@H](CO)[C@H]2OC(=O)/C=C/c2ccc(O)c(O)c2)[C@H](O)[C@H](O)[C@H]1O [Acteoside]	true (1)
CC(C)=CCc1cc2c(cc1O)oc(=O)c1c3ccc(O)cc3oc21	true (1)
CC(C)=CCOc1c2occc2cc2ccc(=O)oc12	true (1)
COc1c2c(cc3oc(CO[C@@H]4O[C@H](CO)[C@@H](O)[C@H](O)[C@H]4O)cc(=O)c13)O[C@H](C(C)(C)O)C2	true (1)
CC(C)=CC[C@@H](O)C1=CC(=O)c2c(O)ccc(O)c2C1=O	true (1)
O=c1c(O[C@@H]2O[C@H](CO)[C@@H](O)[C@H](O)[C@H]2O)c(-c2ccc(O)cc2)oc2cc(O)cc(O)c12	false (0)
O=C(O[C@@H]1Cc2c(O)cc(O)cc2O[C@@H]1c1cc(O)c(O)c(O)c1)c1cc(O)c(O)c(O)c1 [(−)-Epigallocatechin gallate]	true (1)
COc1cc(O)c2c(c1)C(=O)c1cc(C)cc(O)c1C2=O	true (1)
CC(C)=CCOc1c2ccoc2cc2oc(=O)ccc12	true (1)
COc1cc2c(cc1O)CC[n+]1cc3c(OC)c(OC)ccc3cc1-2.[Cl-] [Jatrorrhizine Hydrochloride]	true (1)
C[C@]12C[C@@H](O)[C@@H]3C[C@@]1(O[C@@H]1O[C@H](CO)[C@@H](O)[C@H](O)[C@H]1O)[C@@]3(COC(=O)c1ccccc1)C(=O)O2	true (1)
COc1cc2c(c(OC)c1OC)-c1c(cc(OC)c(OC)c1OC)C[C@H](C)[C@H](C)C2	true (1)
COc1cc2c(=O)c(-c3ccc(O)cc3)coc2cc1O	false (0)
O=c1c(-c2ccc(O)cc2)coc2cc(O[C@@H]3O[C@H](CO)[C@@H](O)[C@H](O)[C@H]3O)cc(O)c12	true (1)
COc1cc(/C=C/C(=O)CC(=O)/C=C/c2ccc(O)c(OC)c2)ccc1O	false (0)
CC1(C)C=Cc2c(ccc3c2OC[C@@H](c2ccc(O)cc2O)C3)O1	true (1)
O=C(O[C@@H]1Cc2c(O)cc(O)cc2O[C@@H]1c1ccc(O)c(O)c1)c1cc(O)c(O)c(O)c1 [(−)-Epicatechin gallate]	false (0)
COc1ccc(-c2cc(=O)c3c(OC)c(OC)c(OC)c(OC)c3o2)cc1	true (1)
CC1(C)O[C@H]1COc1c2ccoc2cc2oc(=O)ccc12	true (1)
O=c1ccc2cc3ccoc3cc2o1	true (1)
COc1cc(-c2oc3cc(O)cc(O)c3c(=O)c2O)ccc1O	true (1)
COc1cc2c(c(OC)c1OC)-c1c(cc(OC)c(OC)c1OC)C[C@](C)(O)[C@@H](C)C2	true (1)
C[C@@H]1O[C@@H](Oc2c(-c3ccc(O)c(O)c3)oc3cc(O)cc(O)c3c2=O)[C@H](O)[C@H](O)[C@H]1O	true (1)
C[C@H]1CC[C@@H]2N(C1)C[C@H]1[C@@H]3C[C@H]4[C@@H](C[C@H](O)[C@H]5C[C@@H](O)CC[C@@]54C)[C@@H]3CC[C@@H]1[C@]2(C)O	true (1)
COc1c2ccoc2cc2oc(=O)ccc12	true (1)

----------
target_under_test: AKR1C1 (Homo sapiens, UniProt Q04828)
procedure_summary: Enzyme activity (NADPH) assay with s-tetralol, recombinant GST-AKR1C1;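 also: GST-fused AKR1C1 expressed in E. coli and purified by glutathione affinity, control wells received DMSO instead of compound, duplicate samples from a single experiment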
Type: biochemical
Set-up: made in house; host or cells: Escherichia coli JM109
conditions_used: 2 μM compound; Supplementary Table 1; CON 0.0122
Reported values of slope for individual entries

compound	slope
C[C@H]1O[C@@H](O[C@H]2CC[C@@]3(C)[C@@H](CC[C@]4(C)[C@@H]3C=C[C@]35OC[C@@]6(CCC(C)(C)C[C@H]63)[C@@H](O)C[C@]54C)[C@]2(C)CO)[C@H](O)[C@@H](O[C@@H]2O[C@H](CO)[C@@H](O)[C@H](O)[C@H]2O)[C@H]1O	0.0115
O=c1c2cc(O)c(O)cc2oc2cc(O)c([C@@H]3O[C@H](CO)[C@@H](O)[C@H](O)[C@H]3O)c(O)c12	0.009429
COc1ccc2cc1Oc1ccc(cc1)C[C@H]1c3cc(c(OC)cc3CCN1C)Oc1c(O)c(OC)cc3c1[C@H](C2)N(C)CC3	0.0139
COc1cc(C(=O)O[C@H]2[C@@H]3C=CO[C@@H](O[C@@H]4O[C@H](CO)[C@@H](O)[C@H](O)[C@H]4O)[C@@H]3[C@@]3(CO)O[C@@H]23)ccc1O [Picroside Ⅱ]	0.006957
C[C@@H]1CC[C@@]2(OC1)O[C@H]1C[C@H]3[C@@H]4CC=C5C[C@@H](O[C@@H]6O[C@H](CO)[C@@H](O[C@@H]7O[C@@H](C)[C@H](O)[C@@H](O)[C@H]7O)[C@H](O)[C@H]6O[C@@H]6O[C@@H](C)[C@H](O)[C@@H](O)[C@H]6O)CC[C@]5(C)[C@H]4CC[C@]3(C)[C@H]1[C@@H]2C	0.0134
COc1cc2c(c(OC)c1OC)-c1c(cc3c(c1OC)OCO3)CC(C)C(C)C2 (centres unmarked)	0.0151
COc1ccc(-c2cc(=O)c3c(OC)c(OC)c(OC)c(OC)c3o2)cc1OC	0.0127
O=C([O-])C(O)Cc1ccc(O)c(O)c1.[Na+] (centres unmarked) [Sodium Danshensu]	0.0105
